Molecular target: Probable G-protein coupled receptor 142 (Homo sapiens)
Sequence (Q7Z601 whole entry): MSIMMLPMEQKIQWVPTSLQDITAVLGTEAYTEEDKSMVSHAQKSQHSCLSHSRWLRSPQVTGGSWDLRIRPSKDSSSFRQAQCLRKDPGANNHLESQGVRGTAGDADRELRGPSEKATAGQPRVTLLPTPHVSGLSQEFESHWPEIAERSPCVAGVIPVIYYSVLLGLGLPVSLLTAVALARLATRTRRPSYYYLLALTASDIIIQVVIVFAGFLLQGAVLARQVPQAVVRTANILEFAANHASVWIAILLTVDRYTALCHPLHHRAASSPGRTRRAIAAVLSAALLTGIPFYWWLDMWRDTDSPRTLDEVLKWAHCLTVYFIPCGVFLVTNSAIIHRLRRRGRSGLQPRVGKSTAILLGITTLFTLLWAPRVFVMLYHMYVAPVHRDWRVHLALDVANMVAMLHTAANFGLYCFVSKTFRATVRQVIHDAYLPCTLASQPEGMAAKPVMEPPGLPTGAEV
Assay: Agonist activity at human GPR142 receptor expressed in HEK293 cells assessed as accumulation of inositol phosphate at 30 uM to 1 nM incubated for 1 hr followed by IP1-d2 addition by HTRF assay relative to control
Type: functional, cell-based
valueType: Emax (%)

> print(dat)
                             structurestring  valuetype  valueobserved
 1  CN(C(=O)c1cccc(Cl)c1)[C@@H]1CCO[C@H](c2nnc(-c3cnc4ccccn34)[nH]2)C1       Emax            102
 2  Cc1ncn(C2CCC2)c1-c1nnc([C@@H]2C[C@H](N(C)C(=O)c3cccc(C(F)(F)F)c3)CCO2)[nH]1       Emax            121
 3  Cc1ncn(CC(F)F)c1-c1nnc([C@H]2CCC[C@@H](N(C)C(=O)c3cccc(C(F)(F)F)c3)C2)[nH]1       Emax            109
 4  Cc1ncn(CC2CN(C)C2)c1NC(=O)[C@H]1CCC[C@@H](N(C)C(=O)c2cccc(C(F)(F)F)c2)C1       Emax            103
 5  CN(C(=O)c1cccc(C(F)(F)F)c1)[C@@H]1CCO[C@H](c2nnc(-c3cnc4n3CCC4)[nH]2)C1       Emax            107
 6  Cc1ncn(C)c1-c1nnc([C@H]2CCC[C@@H](N(C)C(=O)c3cccc(C(F)(F)F)c3)C2)[nH]1       Emax            117
 7  Cc1ncn(C(C)C)c1NC(=O)[C@H]1CCC[C@@H](N(C)C(=O)c2cccc(C(F)(F)F)c2)C1       Emax            115
 8  Cc1ncn(CC(F)(F)F)c1NC(=O)[C@H]1CCC[C@@H](N(C)C(=O)c2cccc(OC(F)(F)F)c2)C1       Emax            114
 9  Cc1ncn(C)c1NC(=O)[C@H]1CCC[C@@H](N(C)C(=O)c2cccc(OC(F)(F)F)c2)C1       Emax            104
10  Cc1ncn(CC(F)F)c1NC(=O)[C@H]1CCC[C@@H](N(C)C(=O)c2cccc(C(F)(F)F)c2)C1       Emax            105

###

Experiment: Dissociation constant, pKa of compound
Assay type: physicochemical
valueType: pKa

> print(dat)
                            structurestring  valuetype  valueobserved
1  Cc1ncn(C)c1-c1nnc([C@@H]2C[C@H](N(C)C(=O)c3cccc(C(F)(F)F)c3)CCO2)[nH]1        pKa            5.9
2  Cc1ncn(C)c1NC(=O)[C@H]1CCC[C@@H](N(C)C(=O)c2cccc(C(F)(F)F)c2)C1        pKa            6.9

###

Assay: Drug metabolism in rat microsomes assessed as drug turnover at 20 uM measured after 30 mins by LCMS analysis
Format: ADME, Microsome
Settings: read-out: Drug metabolism
valueType: metabolised at 0.5 h, 20 µM (%)

Look over these answered cases.
> print(dat)
                            structurestring                    valuetype  valueobserved
1  Cc1ncn(C2CCC2)c1-c1nnc([C@@H]2C[C@H](N(C)C(=O)c3cccc(C(F)(F)F)c3)CCO2)[nH]1  metabolised at 0.5 h, 20 µM             13
2  Cc1ncn(CC(F)F)c1NC(=O)[C@H]1CCC[C@@H](N(C)C(=O)c2cccc(Cl)c2)C1  metabolised at 0.5 h, 20 µM             79

A. Cc1ncn(C)c1-c1nnc([C@@H]2C[C@H](N(C)C(=O)c3cccc(Cl)c3)CCO2)[nH]1
B. Cc1ncc(-c2nnc([C@H]3CCC[C@@H](N(C)C(=O)c4cccc(C(F)(F)F)c4)C3)[nH]2)n1C
C. Cc1ncn(CC(F)F)c1-c1nnc([C@H]2CCC[C@@H](N(C)C(=O)c3cccc(C(F)(F)F)c3)C2)[nH]1
D. CN(C(=O)c1cccc(C(F)(F)F)c1)[C@@H]1CCO[C@H](c2nnc(-c3cnc4n3CCOC4)[nH]2)C1
I would appreciate it if you could sort these 4 compounds by metabolised at 0.5 h, 20 µM, starting from the smallest number. Write the labels, ordered according to the request. A, D, B, C

A. Cc1ncn(C(C)C)c1NC(=O)[C@H]1CCC[C@@H](N(C)C(=O)c2cccc(C(F)(F)F)c2)C1
B. Cc1ncn(C)c1-c1nnc([C@@H]2C[C@H](N(C)C(=O)c3cccc(OC(F)(F)F)c3)CCO2)[nH]1
# query: argmin of metabolised at 0.5 h, 20 µM over A and B I would appreciate it if you answered with the label of your choice. B
(B: 14%, A: 52%)

A. Cc1ncn(C)c1-c1nnc([C@H]2CCC[C@@H](N(C)C(=O)c3cccc(C(F)(F)F)c3)C2)[nH]1
B. Cc1ncn(C)c1-c1nnc([C@@H]2C[C@H](N(C)C(=O)c3cccc(C(F)(F)F)c3)CCO2)[nH]1
C. Cc1ncn(CC2CN(C)C2)c1NC(=O)[C@H]1CCC[C@@H](N(C)C(=O)c2cccc(C(F)(F)F)c2)C1
Hey, can you sort those compounds up there by metabolised at 0.5 h, 20 µM, smallest first? Ranked list of labels, please, in the requested order. B, C, A
(B: 14%, C: 29%, A: 43%)

###

Target: UniProtKB Q7Z601
Experiment: Agonist activity at human GPR142 receptor expressed in HEK293 cells assessed as accumulation of inositol phosphate incubated for 1 hr followed by IP1-d2 addition by HTRF assay
valueType: EC50 (nM)

Some compounds with recorded EC50:
> print(dat)
                            structurestring  valuetype  valueobserved
1  Cc1ncc(-c2nnc([C@H]3CCC[C@@H](N(C)C(=O)c4cccc(C(F)(F)F)c4)C3)[nH]2)n1C       EC50             46
2  CN(C(=O)c1cccc(C(F)(F)F)c1)[C@@H]1CCC[C@H](c2nnc(-c3cnc4n3CCOC4)[nH]2)C1       EC50             32
3  Cc1ncn(C)c1-c1nnc([C@H]2CCC[C@@H](N(C)C(=O)c3cccc(Cl)c3)C2)[nH]1       EC50             14
4  Cc1ncn(CC2CC2)c1NC(=O)[C@H]1CCC[C@@H](N(C)C(=O)c2cccc(C(F)(F)F)c2)C1       EC50             52
5  CN(C(=O)c1cccc(C(F)(F)F)c1)[C@@H]1CCO[C@H](c2nnc(-c3cnc4n3CCC4)[nH]2)C1       EC50             53

A. Cc1ncn(CCN2CCOCC2)c1NC(=O)[C@H]1CCC[C@@H](N(C)C(=O)c2cccc(C(F)(F)F)c2)C1
B. Cc1nc[nH]c1-c1nnc([C@H]2CCC[C@@H](N(C)C(=O)c3cccc(C(F)(F)F)c3)C2)[nH]1
C. Cc1ncn(C(C)C)c1NC(=O)[C@H]1CCC[C@@H](N(C)C(=O)c2cccc(C(F)(F)F)c2)C1
Hello, I need these entries ordered by EC50, highest reading first. Thanks! # respond with the labels, arranged in the requested order B, A, C

P. Cc1ncn(CC(F)F)c1NC(=O)[C@H]1CCC[C@@H](N(C)C(=O)c2cccc(C(F)(F)F)c2)C1
Q. Cc1ncn(C)c1-c1nnc([C@@H]2C[C@H](N(C)C(=O)c3cccc(C(F)(F)F)c3)CCO2)[nH]1
R. CN(C(=O)c1cccc(C(F)(F)F)c1)[C@@H]1CCO[C@H](c2nnc(-c3cnc4n3CCOC4)[nH]2)C1
In this exercise, place the 3 compounds in ascending sequence of their recorded EC50. In your reply, arrange the labels in the requested order. Q, P, R
(Q: 43 nM, P: 63 nM, R: 102 nM)

a. Cc1ncn(C2CCC2)c1-c1nnc([C@@H]2C[C@H](N(C)C(=O)c3cccc(C(F)(F)F)c3)CCO2)[nH]1
b. Cc1ncn(C)c1NC(=O)[C@H]1CCC[C@@H](N(C)C(=O)c2cccc(C(F)(F)F)c2)C1
Please compare: a and b . Report which one has the smaller EC50 value. # respond with the chosen item's label a
(a: 16 nM, b: 30 nM)

A. CN(C(=O)c1cccc(Cl)c1)[C@@H]1CCO[C@H](c2nnc(-c3cnc4ccccn34)[nH]2)C1
B. Cc1ncn(C)c1-c1nnc([C@H]2CCC[C@@H](N(C)C(=O)c3cccc(C(F)(F)F)c3)C2)[nH]1
Could you tell me which of A and B has the lower EC50 reading? Return value: the label identifying the chosen record. B
(B: 11 nM, A: 35 nM)

###

Assay: Permeability of compound
Type: ADME
Details: not told
valueType: Papp (×10⁻⁶ cm/s)
Write it as a number; the unit ×10⁻⁶ cm/s goes unstated.

Requested field: Papp. Item: Cc1ncn(C)c1-c1nnc([C@@H]2C[C@H](N(C)C(=O)c3cccc(C(F)(F)F)c3)CCO2)[nH]1 13.5
